Source: patent US20220177594A1

Listing of recorded koff by entry.
Target: Feline_OSMR_hlgG1_Fc (feline)
Sequence (chain, as listed by the source limits assumed, form in doubt): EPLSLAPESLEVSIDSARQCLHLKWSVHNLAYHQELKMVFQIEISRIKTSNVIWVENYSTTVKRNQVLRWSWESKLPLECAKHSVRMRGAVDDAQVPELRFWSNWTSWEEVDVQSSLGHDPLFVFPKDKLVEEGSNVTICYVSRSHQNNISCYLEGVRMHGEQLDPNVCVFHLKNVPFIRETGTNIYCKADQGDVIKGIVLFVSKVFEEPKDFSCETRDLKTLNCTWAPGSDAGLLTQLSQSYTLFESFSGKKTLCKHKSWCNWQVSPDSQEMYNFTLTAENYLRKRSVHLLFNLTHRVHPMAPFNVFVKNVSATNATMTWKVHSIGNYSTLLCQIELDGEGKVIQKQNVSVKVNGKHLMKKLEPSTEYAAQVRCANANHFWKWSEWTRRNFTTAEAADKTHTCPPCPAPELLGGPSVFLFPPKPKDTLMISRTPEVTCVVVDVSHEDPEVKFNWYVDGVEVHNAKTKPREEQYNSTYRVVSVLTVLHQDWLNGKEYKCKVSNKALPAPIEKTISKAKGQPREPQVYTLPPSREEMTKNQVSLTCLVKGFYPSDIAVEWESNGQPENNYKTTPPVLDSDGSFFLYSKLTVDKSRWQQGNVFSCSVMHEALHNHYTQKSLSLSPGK
Test: SPR Biacore
Remember to quote the unit after the number.

Some solved cases for reference:
>>> value_reported("Mu_02D09_VH (SEQ ID NO: 31)_D102A (antibody, V domains shown) VH: EVQLVESGGGLVKPGGSLTLSCAASGFTFSDYGMHWLRQAPEKGLEWVAYISSGSRAVFFADTVKGRFTISRDNAKNTLFLQMTSLRSDDTAMYYCARDRYAGRGFAYWGQGTLVTVSA VL: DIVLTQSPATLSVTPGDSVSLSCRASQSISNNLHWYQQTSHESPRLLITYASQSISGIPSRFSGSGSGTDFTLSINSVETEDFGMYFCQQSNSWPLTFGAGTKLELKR")
"0.00174 s⁻¹"
>>> value_reported("Mu_19F07_VL (SEQ ID NO: 49)_Q89A (antibody, V domains shown) VH: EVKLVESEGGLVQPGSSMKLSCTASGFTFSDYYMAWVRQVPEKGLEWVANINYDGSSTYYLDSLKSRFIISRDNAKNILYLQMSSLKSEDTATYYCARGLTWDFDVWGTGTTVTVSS VL: DIVMTQSHKFMSPSVGDRVSITCKASQDVDTAVAWYQQKPGQSPKLLIYLASTRHTGVPDRFTGSGSGTDFTLTISNVQSEDLADYFCAQYSRFPLTFGAGTKLELKR")
"2.38e-06 s⁻¹"

Enquiry: If you can, please state the reported koff value of Mu_09E09_VH (SEQ ID NO: 35)_S35A (antibody, V domains shown) VH: DVKLVESGEGLVKPGGSLKLSCAASGFTFSSYAMAWVRQTPEKRLEWVAYISSGGDYIYYADTVKGRFTISRDNARNTLYLQMSSLKSEDTAMYYCTRDPITGTFAYWGQGTLVTVSA VL: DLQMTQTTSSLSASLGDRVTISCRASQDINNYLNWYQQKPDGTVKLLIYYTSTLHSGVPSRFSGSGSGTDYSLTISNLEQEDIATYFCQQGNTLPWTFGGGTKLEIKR .
Return: 0.00104 s⁻¹
